B1: Histone-lysine N-methyltransferase SETD2, residues 2382 to 2430; numbered along this chain, Q9BYW2 (parent)
chain: SPPKPKTIVLPPNWKTARDPEGKIYYYHVITRQTQWDPPTWESPGDDAS

- Variants of: B1
- testSummary: abundance fitness (aPCA) (normalised: wild type 0, dead -1); higher = more abundant; growth selection in yeast, the domain comes from the species named
- appliedConditions: Homo sapiens
Provide the recorded abundance fitness for the entries that follow.
Keep it simple and answer with nothing but the number.

What does the data say about its abundance fitness? Entry: `T31K`
-0.651

What does the data say about its abundance fitness? Entry: `D19E`
-0.314

What does the data say about its abundance fitness? Entry: `P39T`
-0.98

What does the data say about its abundance fitness? Entry: `S43E`
0.193

What does the data say about its abundance fitness? Entry: `T31D`
-0.724

What does the data say about its abundance fitness? Entry: `G22H`
-0.484

What does the data say about its abundance fitness? Entry: `T16P`
-0.341

What does the data say about its abundance fitness? Entry: `A17V`
-0.242

What does the data say about its abundance fitness? Entry: `R32N`
0.031

What does the data say about its abundance fitness? Entry: `D47L`
-0.107

What does the data say about its abundance fitness? Entry: `P20W`
-0.367

What does the data say about its abundance fitness? Entry: `P38R`
-0.251

What does the data say about its abundance fitness? Entry: `D37K`
-0.061

What does the data say about its abundance fitness? Entry: `S1C`
0.007

What does the data say about its abundance fitness? Entry: `Q33W`
-0.751

What does the data say about its abundance fitness? Entry: `P5N`
0.294

What does the data say about its abundance fitness? Entry: `P12S`
-0.195

What does the data say about its abundance fitness? Entry: `W14Y`
-0.566

What does the data say about its abundance fitness? Entry: `V9T`
0.123

What does the data say about its abundance fitness? Entry: `W36M`
-0.382

What does the data say about its abundance fitness? Entry: `V9H`
-0.068

What does the data say about its abundance fitness? Entry: `W41Y`
0.338
